Origin of the recorded values: ChEMBL document CHEMBL2057139

- Tested on: Plasmodium falciparum
- Procedure details: Antimalarial activity against asexual erythrocyte stage of chloroquine-resistant Plasmodium falciparum Dd2 by parasite lactate dehydrogenase assay
- Assay type: functional, organism-based
Quantity name: log10 IC50 (log10 of the value in nM)
The common logarithm of IC50 in nM is what is listed.

// below: answered molecules
[
  {
    "Molecule": "C[C@H]1[C@@H](OCCNCCN2CCCCC2)O[C@@H]2O[C@@]3(C)CC[C@H]4[C@H](C)CC[C@@H]1[C@@]24OO3.O=C(O)C(=O)O",
    "log10 IC50": 1.82
  },
  {
    "Molecule": "C[C@H]1[C@@H](OCCN2CCOCC2)O[C@@H]2O[C@@]3(C)CC[C@H]4[C@H](C)CC[C@@H]1[C@@]24OO3.O=C(O)C(=O)O",
    "log10 IC50": 1.21
  },
  {
    "Molecule": "C[C@H]1[C@H](OC(=O)CCC(=O)[O-])O[C@@H]2O[C@@]3(C)CC[C@H]4[C@H](C)CC[C@@H]1[C@@]24OO3.[Na+] [SODIUM ARESUNATE]",
    "log10 IC50": 1.41
  }
]

Need log10 IC50, item C[C@H]1[C@@H](OCCNCCCn2ccnc2)O[C@@H]2O[C@@]3(C)CC[C@H]4[C@H](C)CC[C@@H]1[C@@]24OO3.O=C(O)C(=O)O
2.28

Need log10 IC50, item C[C@H]1[C@@H](OCCN(C)Cc2ccccc2)O[C@@H]2O[C@@]3(C)CC[C@H]4[C@H](C)CC[C@@H]1[C@@]24OO3.O=C(O)C(=O)O
1.30

Need log10 IC50, item C[C@H]1[C@@H](OCCNCCNc2ccccc2)O[C@@H]2O[C@@]3(C)CC[C@H]4[C@H](C)CC[C@@H]1[C@@]24OO3.O=C(O)C(=O)O
1.74

Need log10 IC50, item C[C@H]1[C@@H](OCCN2CCCCC2)O[C@@H]2O[C@@]3(C)CC[C@H]4[C@H](C)CC[C@@H]1[C@@]24OO3.O=C(O)C(=O)O
1.51

====

- Test system: Plasmodium falciparum
- Procedure details: Antimalarial activity against asexual erythrocyte stage of chloroquine-resistant Plasmodium falciparum Dd2 by parasite lactate dehydrogenase assay
- Format: functional, organism-based
Below, each entry is listed alongside its reported IC50.
Use nM as the unit, but write only the number.

// below: answered compounds
[
  {
    "Query smiles": "CC(C)CNCCO[C@H]1O[C@@H]2O[C@@]3(C)CC[C@H]4[C@H](C)CC[C@@H]([C@H]1C)[C@@]24OO3.O=C(O)C(=O)O",
    "IC50 [nM]": 54.9
  },
  {
    "Query smiles": "C[C@H]1[C@@H](OCCNCCN2CCOCC2)O[C@@H]2O[C@@]3(C)CC[C@H]4[C@H](C)CC[C@@H]1[C@@]24OO3.O=C(O)C(=O)O",
    "IC50 [nM]": 61.6
  },
  {
    "Query smiles": "C[C@H]1[C@@H](OCCNCc2ccco2)O[C@@H]2O[C@@]3(C)CC[C@H]4[C@H](C)CC[C@@H]1[C@@]24OO3.O=C(O)C(=O)O",
    "IC50 [nM]": 21.4
  }
]

Now, please, on to the next compound.
Need IC50, item C[C@H]1[C@@H](OCCN2CCNCC2)O[C@@H]2O[C@@]3(C)CC[C@H]4[C@H](C)CC[C@@H]1[C@@]24OO3.O=C(O)C(=O)O
50.9

====

Below, each entry is listed alongside its reported pIC50.
- System: Plasmodium falciparum
- Procedure details: Antimalarial activity against asexual erythrocyte stage of chloroquine-sensitive Plasmodium falciparum D10 by parasite lactate dehydrogenase assay
- Type: functional, organism-based
# pIC50: negative log10 of molar concentration; output just the value

// below: answered molecules
[
  {
    "Query smiles": "C[C@H]1[C@@H](OCCN(C)Cc2ccccc2)O[C@@H]2O[C@@]3(C)CC[C@H]4[C@H](C)CC[C@@H]1[C@@]24OO3.O=C(O)C(=O)O",
    "pIC50": 8.84
  },
  {
    "Query smiles": "C[C@H]1[C@@H](OCCNCCN2CCCCC2)O[C@@H]2O[C@@]3(C)CC[C@H]4[C@H](C)CC[C@@H]1[C@@]24OO3.O=C(O)C(=O)O",
    "pIC50": 8.17
  },
  {
    "Query smiles": "C[C@H]1[C@@H](O)O[C@@H]2O[C@@]3(C)CC[C@H]4[C@H](C)CC[C@@H]1[C@@]24OO3",
    "pIC50": 9.11
  },
  {
    "Query smiles": "C[C@H]1[C@@H](OCCN2CCOCC2)O[C@@H]2O[C@@]3(C)CC[C@H]4[C@H](C)CC[C@@H]1[C@@]24OO3.O=C(O)C(=O)O",
    "pIC50": 8.33
  },
  {
    "Query smiles": "C[C@H]1[C@@H](OCCN2CCCCC2)O[C@@H]2O[C@@]3(C)CC[C@H]4[C@H](C)CC[C@@H]1[C@@]24OO3.O=C(O)C(=O)O",
    "pIC50": 8.48
  },
  {
    "Query smiles": "CC(C)N(CCNCCO[C@H]1O[C@@H]2O[C@@]3(C)CC[C@H]4[C@H](C)CC[C@@H]([C@H]1C)[C@@]24OO3)C(C)C.O=C(O)C(=O)O",
    "pIC50": 8.74
  }
]

Need pIC50, item C[C@H]1[C@@H](OCCN2CCNCC2)O[C@@H]2O[C@@]3(C)CC[C@H]4[C@H](C)CC[C@@H]1[C@@]24OO3.O=C(O)C(=O)O
8.74
